- target under test: T2R01 (TAS2R01) (Homo sapiens)
- Construct: expressed in transfected cells; host or cells: cells expressing a promiscuous G protein (e.g., G16g44)
- Sequence (Q9NYW7 whole entry): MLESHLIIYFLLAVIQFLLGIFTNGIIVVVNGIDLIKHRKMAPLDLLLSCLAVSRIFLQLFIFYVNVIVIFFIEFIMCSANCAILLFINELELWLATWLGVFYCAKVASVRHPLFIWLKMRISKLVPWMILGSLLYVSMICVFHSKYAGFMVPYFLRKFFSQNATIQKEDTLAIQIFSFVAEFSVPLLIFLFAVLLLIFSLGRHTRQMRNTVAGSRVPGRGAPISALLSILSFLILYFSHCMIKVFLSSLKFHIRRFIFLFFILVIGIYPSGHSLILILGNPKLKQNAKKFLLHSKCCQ
- protocol details: FLIPR calcium assay, block of bitter agonist response, T2R01
- Format: cell-based
- condition: unsaturated fatty acid concentration of 200 µM, cells stimulated with known bitter agonist, read-out: percentage block of cellular response over baseline, 01
readout label: inhibition at 200 µM (%)

Check out these entries, answers already filled in.
[[record]]
compound = "CCCCCCCC/C=C/C(=O)O [Compound 106]"
value = 80

[[record]]
compound = "C=CCCCCCCCC(=O)O [Compound 117]"
value = 50

[[record]]
compound = "CCCCCC/C=C\\CCCC(=O)O [Compound 124]"
value = 55

[[record]]
compound = "CC(C)=CCC/C(C)=C/C(=O)O [Compound 129]"
value = 40


(a) CC(C)=CCCC(C)=CC(=O)O [Compound 128]
(b) CCCCCCCCC/C=C/C(=O)O [Compound 107]
Would you let me know which has the greater inhibition at 200 µM value, a or b ? Identify your selection by its label.
b
(b: 90%, a: 50%)
